The origin of these recorded values is the Biogen ADME set (Fang et al. 2023).

property: intrinsic clearance, human liver microsomes (mL/min/kg)
Output spec: scalar in mL/min/kg, unitless text.

Data point: CC(=O)N1CCCN(Cc2ccc(C(=O)N3CCCC3)cc2)c2ccccc21 ; intrinsic clearance, human liver microsomes = 227

Data point: Cc1cc(Nc2ccc(F)cn2)cc(C2CCN(C(=O)CCc3cccc(Cl)c3)C2)n1 (stereo not drawn) ; intrinsic clearance, human liver microsomes = 562

Data point: Cc1cc(C)nc(NS(=O)(=O)c2ccc(NC(=O)/C=C/c3ccc([N+](=O)[O-])s3)cc2)n1 ; intrinsic clearance, human liver microsomes = 14

Data point: COC(=O)C1=NOC2(CCN(CCCCCF)CC2)C1 ; intrinsic clearance, human liver microsomes = 199

Data point: CNc1nc(C)cc(C(=O)Nc2ccc3[nH]ncc3c2)n1 ; intrinsic clearance, human liver microsomes = 21.3

Data point: NC(=O)COc1ccccc1-c1ccccc1 ; intrinsic clearance, human liver microsomes = 25.9

Data point: CCc1nc(NC(=O)c2ccccc2F)sc1C ; intrinsic clearance, human liver microsomes = 26

Data point: CCC(Nc1cnn(C)c1)c1ccc2c(c1)OCCO2 (stereo not drawn) ; intrinsic clearance, human liver microsomes = 11.4
